- SYSTEM TESTED: Recombinant human integrin αVβ3 (Homo sapiens, UniProt P05106+P06756)
- Sequence (P06756 31-992 limits assumed): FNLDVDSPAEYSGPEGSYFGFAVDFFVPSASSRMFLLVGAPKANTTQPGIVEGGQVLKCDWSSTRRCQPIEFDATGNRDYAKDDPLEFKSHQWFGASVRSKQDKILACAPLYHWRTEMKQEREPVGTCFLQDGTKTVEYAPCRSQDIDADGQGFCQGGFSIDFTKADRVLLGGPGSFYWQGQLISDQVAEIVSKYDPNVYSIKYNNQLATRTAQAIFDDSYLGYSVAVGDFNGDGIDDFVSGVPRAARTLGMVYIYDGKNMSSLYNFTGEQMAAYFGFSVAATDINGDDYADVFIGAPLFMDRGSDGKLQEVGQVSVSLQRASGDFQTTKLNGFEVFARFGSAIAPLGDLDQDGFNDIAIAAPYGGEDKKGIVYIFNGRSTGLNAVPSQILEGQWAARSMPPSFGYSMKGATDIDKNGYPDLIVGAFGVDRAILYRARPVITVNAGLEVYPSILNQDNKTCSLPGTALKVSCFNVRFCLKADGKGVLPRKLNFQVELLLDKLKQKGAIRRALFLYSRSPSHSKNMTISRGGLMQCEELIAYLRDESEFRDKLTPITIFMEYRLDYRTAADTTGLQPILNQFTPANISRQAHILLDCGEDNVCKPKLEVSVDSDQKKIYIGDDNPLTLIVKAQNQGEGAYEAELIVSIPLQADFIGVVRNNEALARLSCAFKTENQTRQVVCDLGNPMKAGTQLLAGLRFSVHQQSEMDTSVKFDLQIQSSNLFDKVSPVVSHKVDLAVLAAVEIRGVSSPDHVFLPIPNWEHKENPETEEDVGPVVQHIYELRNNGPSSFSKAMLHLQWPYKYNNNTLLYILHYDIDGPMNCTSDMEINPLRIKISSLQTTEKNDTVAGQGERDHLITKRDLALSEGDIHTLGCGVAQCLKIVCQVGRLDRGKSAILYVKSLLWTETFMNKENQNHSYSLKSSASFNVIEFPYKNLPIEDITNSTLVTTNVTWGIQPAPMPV
- Sequence (P05106 27-718 limits assumed): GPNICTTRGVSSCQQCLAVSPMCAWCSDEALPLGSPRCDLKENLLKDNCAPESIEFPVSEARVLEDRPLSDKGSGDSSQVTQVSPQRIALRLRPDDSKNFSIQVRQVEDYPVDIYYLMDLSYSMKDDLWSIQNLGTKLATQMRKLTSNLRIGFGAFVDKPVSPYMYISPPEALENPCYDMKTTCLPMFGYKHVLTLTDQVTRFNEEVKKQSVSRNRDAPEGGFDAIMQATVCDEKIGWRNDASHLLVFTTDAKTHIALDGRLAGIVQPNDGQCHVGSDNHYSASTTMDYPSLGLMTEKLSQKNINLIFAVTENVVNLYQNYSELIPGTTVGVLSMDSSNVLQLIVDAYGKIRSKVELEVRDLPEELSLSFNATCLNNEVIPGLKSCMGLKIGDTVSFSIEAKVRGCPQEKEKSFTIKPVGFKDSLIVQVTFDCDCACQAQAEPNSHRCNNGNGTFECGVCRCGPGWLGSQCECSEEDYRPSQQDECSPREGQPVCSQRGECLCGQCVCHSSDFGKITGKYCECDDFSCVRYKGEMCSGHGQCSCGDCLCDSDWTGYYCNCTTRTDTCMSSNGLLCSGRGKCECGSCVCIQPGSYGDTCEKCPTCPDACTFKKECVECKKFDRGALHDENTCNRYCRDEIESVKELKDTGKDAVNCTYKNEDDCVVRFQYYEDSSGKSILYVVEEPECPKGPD
- ASSAY DETAILS: Solid Phase Receptor Assay for αVβ3 function
- MEASUREMENT CONTEXT: plate-bound human vitronectin; read-out: αVβ3 SPRA IC50
Counter-ions that a name gives are not always drawn.
RECORDED ENDPOINT: log10(IC50) (log10 of the value in nM)

COc1ccc(C2=CCOCC2)cc1[C@H](CC(=O)O)Cc1csc(CCCc2ccc3c(n2)NCCC3)n1 [Example 37A, trifluoroacetate]; 2.20
COc1ccc(S(F)(F)(F)(F)F)cc1C(CC(=O)O)Cc1cc(OCCc2ccc3c(n2)NCCC3)n(C)n1 (stereo not shown); 2.11
COCC1(c2ccc(OC)c(C(CC(=O)O)Cc3cc(OCCc4ccc5c(n4)NCCC5)n(C)n3)c2)CCOCC1 (stereo not shown); 3.08
COc1c(C(C)C)cc(C(CC(=O)O)Cc2csc(CCCc3ccc4c(n3)NCCC4)n2)cc1C(C)C (stereo not shown); 2.72
Cn1nc(CC(CC(=O)O)c2cc(C(C)(C)C)cc(C(C)(C)C#N)c2)cc1OCCc1ccc2c(n1)NCCC2 (stereo not shown); 1.58
COCC1(c2cc(C(CC(=O)O)Cc3cc(OCCc4ccc5c(n4)NCCC5)n(C)n3)cc(C(C)(C)C)c2)CCOCC1 (stereo not shown); 1.68
COc1ccc(C2(C(F)F)CC2)cc1C(CC(=O)O)Cc1cc(OCCc2ccc3c(n2)NCCC3)n(C)n1 (stereo not shown); 2.53
